Origin of the recorded values: patent US12622893B2

- PROTOCOL_TEXT: In vitro metabolic stability in rabbit cornea homogenates
- Type: in vitro ADME, Dutch Belted rabbits
- TEST_CONTEXT: metabolite 1 = pilocarpine; 1 μM test compound, 0.3 mg/mL corneal protein homogenate, pH=6.0, 37° C.
Mark Met for Rate of formation Metabolite 1 under 6 nM/min/mg, Not met if at or over.

INPUT_SMILES: CC[C@H](C(=O)OCc1cccc([C@H](C)c2c[nH]cn2)c1C)[C@H](COC(C)=O)Cc1cncn1C
GROUP: Met
--
INPUT_SMILES: CC[C@H](C(=O)OCc1cccc([C@H](C)c2c[nH]cn2)c1C)[C@H](CO)Cc1cncn1C
GROUP: Met
--
INPUT_SMILES: CC[C@H](C(=O)OCOC(=O)N1CCN=C1Nc1ccc2nccnc2c1Br)[C@H](CO)Cc1cncn1C
GROUP: Met
--
INPUT_SMILES: CC[C@H](C(=O)OCOC(=O)N1CCN=C1Nc1ccc2[nH]cnc2c1Br)[C@H](CO)Cc1cncn1C
GROUP: Not met

Next item in the queue.
Does the reported Rate of formation Metabolite 1 of the following compound sit strictly below 6 nM/min/mg? CC[C@H](C(=O)OCOC(=O)N1CCN=C1Nc1ccc2nccnc2c1Br)[C@H](COC(C)=O)Cc1cncn1C
Not met
